Biological target: Receptor-type tyrosine-protein kinase FLT3 (Homo sapiens) (UniProt P36888)
Sequence (P36888 whole entry): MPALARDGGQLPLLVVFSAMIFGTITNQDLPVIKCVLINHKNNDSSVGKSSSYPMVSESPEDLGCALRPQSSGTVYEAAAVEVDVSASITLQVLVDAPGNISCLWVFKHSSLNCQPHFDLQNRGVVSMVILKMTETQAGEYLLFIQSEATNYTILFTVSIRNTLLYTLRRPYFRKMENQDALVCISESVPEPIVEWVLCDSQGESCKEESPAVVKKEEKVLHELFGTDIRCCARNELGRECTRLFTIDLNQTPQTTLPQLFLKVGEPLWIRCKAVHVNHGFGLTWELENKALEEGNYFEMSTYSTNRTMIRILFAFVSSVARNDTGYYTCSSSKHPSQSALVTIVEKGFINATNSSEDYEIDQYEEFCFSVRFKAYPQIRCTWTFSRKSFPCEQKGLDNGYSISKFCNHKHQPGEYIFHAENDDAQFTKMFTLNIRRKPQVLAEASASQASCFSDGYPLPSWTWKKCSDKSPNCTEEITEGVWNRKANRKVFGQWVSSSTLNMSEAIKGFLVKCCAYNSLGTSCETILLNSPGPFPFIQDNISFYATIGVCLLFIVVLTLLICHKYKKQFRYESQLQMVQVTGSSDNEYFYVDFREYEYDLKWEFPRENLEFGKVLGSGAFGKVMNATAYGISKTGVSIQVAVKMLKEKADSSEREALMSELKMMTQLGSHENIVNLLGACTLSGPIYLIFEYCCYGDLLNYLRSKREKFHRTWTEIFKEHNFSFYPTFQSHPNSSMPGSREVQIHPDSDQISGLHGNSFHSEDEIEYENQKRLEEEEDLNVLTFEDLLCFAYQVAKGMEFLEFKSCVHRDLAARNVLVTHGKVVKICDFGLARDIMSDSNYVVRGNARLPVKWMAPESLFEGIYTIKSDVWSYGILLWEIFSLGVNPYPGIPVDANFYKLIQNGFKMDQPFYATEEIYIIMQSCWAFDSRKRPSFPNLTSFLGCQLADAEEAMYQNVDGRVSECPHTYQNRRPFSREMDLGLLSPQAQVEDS
Assay: Inhibition of FLT3 (unknown origin) at 0.5 uM relative to control
Outcome: Satisfied for inhibition of at least 40%; Not satisfied for anything lower.

These recorded examples may help you get a feel for the data.
{"SMILES RECORD": "CNC(=O)c1cc(Oc2ccc(NC(=O)c3nc(SC)n(CCN(C)C)c3-c3ccc(F)cc3)cc2)ccn1", "CAT": "Satisfied"}
{"SMILES RECORD": "CNC(=O)c1cc(Oc2ccc(NC(=O)c3nc(S(C)(=O)=O)sc3-c3ccc(F)cc3)cc2)ccn1", "CAT": "Satisfied"}
{"SMILES RECORD": "CSc1nc(C(=O)Nc2ccc(Oc3cc4cnn(C)c4cc3Br)cc2)c(-c2ccc(F)cc2)o1", "CAT": "Not satisfied"}
{"SMILES RECORD": "CNC(=O)c1cc(Oc2ccc(NC(=O)c3nc(SC)oc3-c3ccc(F)cc3)cc2F)ccn1", "CAT": "Not satisfied"}

Does CNC(=O)c1cc(Oc2ccc(NC(=O)c3n[nH]nc3-c3ccc(F)cc3)cc2)ccn1 have a reported inhibition of at least 40%?
Satisfied
